system: 953936-095-R-J2-PDC spheroids with HUVEC/MSC, viability; test: Anticancer human tumor 953936-095-R-J2-PDC patient-derived cervical squamous cell carcinoma cell line growth inhibition [PI3K]; conditions: curve of first compound; second compound 0.1 µM
pIC50: −log10 of the molar value.
Here, each record is paired with measured pIC50 data.

compound="CC(=O)c1c(C)c2cnc(Nc3ccc(N4CCNCC4)cn3)nc2n(C2CCCC2)c1=O + CC(Nc1ncnc2nc[nH]c12)c1cc2cccc(Cl)c2c(=O)n1-c1ccccc1" observed_measurement="< 7.00"
compound="Cn1nccc1Nc1nccc(-c2ccn(C(CO)c3ccc(Cl)c(F)c3)c(=O)c2)n1 (centres undefined) + CC(Nc1ccc2c(c1)OCCn1cc(N3C(=O)OCC3C(F)F)nc1-2)C(N)=O" observed_measurement=6.42
compound="C=CC(=O)N1CCN(c2nc(=O)n(-c3c(C)ccnc3C(C)C)c3nc(-c4c(O)cccc4F)c(F)cc23)C(C)C1 (centres undefined) + COc1c(OCCCN2CCOCC2)ccc2c3n(c(=NC(=O)c4cnc(N)nc4)nc12)CCN3" observed_measurement="> 7.50"

Exercise: Quick one: pIC50 for C[C@@H](NC(=O)c1ncnc(N)c1Cl)c1ncc(C(=O)Nc2cc(C(F)(F)F)c(Cl)cn2)s1 + CC(Nc1ccc2c(c1)OCCn1cc(N3C(=O)OCC3C(F)F)nc1-2)C(N)=O ?
Solution: < 5.00

Exercise: Quick one: pIC50 for Cn1ncc(Cl)c1-c1cc(C(=O)NC(CN)Cc2cccc(F)c2)sc1Cl (centres undefined) + CC(Nc1ccc2c(c1)OCCn1cc(N3C(=O)OCC3C(F)F)nc1-2)C(N)=O ?
Solution: 6.74

Exercise: Quick one: pIC50 for CNC(=O)c1ccc(N2C(=S)N(c3ccc(C#N)c(C(F)(F)F)c3)C(=O)C2(C)C)cc1F + Cc1nc(NC(=O)N2CCCC2C(N)=O)sc1-c1ccnc(C(C)(C)C(F)(F)F)c1 ?
Solution: < 5.00

Exercise: Quick one: pIC50 for C=CC(=O)N1CCN(c2nc(=O)n(-c3c(C)ccnc3C(C)C)c3nc(-c4c(O)cccc4F)c(F)cc23)C(C)C1 (centres undefined) + Cc1nc(NC(=O)N2CCCC2C(N)=O)sc1-c1ccnc(C(C)(C)C(F)(F)F)c1 ?
Solution: < 5.00

Exercise: Quick one: pIC50 for CC(Cn1ccc(-c2ccc(C#N)c(Cl)c2)n1)NC(=O)c1cc(C(C)O)[nH]n1 (centres undefined) + COc1c(OCCCN2CCOCC2)ccc2c3n(c(=NC(=O)c4cnc(N)nc4)nc12)CCN3 ?
Solution: > 7.50

Exercise: Quick one: pIC50 for C=CC(=O)N1CCN(c2nc(=O)n(-c3c(C)ccnc3C(C)C)c3nc(-c4c(O)cccc4F)c(F)cc23)C(C)C1 (centres undefined) + CC(Nc1ccc2c(c1)OCCn1cc(N3C(=O)OCC3C(F)F)nc1-2)C(N)=O ?
Solution: < 5.00

* * *

test system: 953936-095-R-J2-PDC spheroids with HUVEC/MSC, viability; assay: Anticancer human tumor 953936-095-R-J2-PDC cell line growth inhibition [PI3K]; conditions: second compound 0.0316 µM; first compound 0.0316 µM; stronger effect = lower value;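 further: spheroids exposed to compounds for seven days before read-out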
Here, each record is paired with measured viability, T/C data.

compound="CCCS(=O)(=O)Nc1ccc(F)c(C(=O)c2c[nH]c3ncc(-c4ccc(Cl)cc4)cc23)c1F + CC(Nc1ccc2c(c1)OCCn1cc(N3C(=O)OCC3C(F)F)nc1-2)C(N)=O" assay_endpoint="viability, T/C" observed_measurement=82%
compound="Cn1ncnc1[C@H]1c2n[nH]c(=O)c3cc(F)cc(c23)N[C@@H]1c1ccc(F)cc1 + CC(Nc1ccc2c(c1)OCCn1cc(N3C(=O)OCC3C(F)F)nc1-2)C(N)=O" assay_endpoint="viability, T/C" observed_measurement=80.2%

Exercise: Quick one: viability, T/C for C=CC(=O)N1CCN(c2nc(=O)n(-c3c(C)ccnc3C(C)C)c3nc(-c4c(O)cccc4F)c(F)cc23)C(C)C1 (centres undefined) + CC(Nc1ccc2c(c1)OCCn1cc(N3C(=O)OCC3C(F)F)nc1-2)C(N)=O ?
Solution: 80%

Exercise: Quick one: viability, T/C for CC(C)NCC(C(=O)N1CCN(c2ncnc3c2C(C)CC3O)CC1)c1ccc(Cl)cc1 (centres undefined) + CC(Nc1ccc2c(c1)OCCn1cc(N3C(=O)OCC3C(F)F)nc1-2)C(N)=O ?
Solution: 79.1%

* * *

system: 953936-095-R-J2-PDC spheroids with HUVEC/MSC, viability; experiment: Anticancer human tumor 953936-095-R-J2-PDC cell line growth inhibition [PI3K]; conditions: second compound 1 µM; first compound 3.16 µM; stronger effect = lower value;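 further: spheroids exposed to compounds for seven days before read-out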
// NB: equality with 10% counts as criterion not met; only viability, T/C strictly below is criterion met

Past entries and their recorded results:
compound="CCCS(=O)(=O)Nc1ccc(F)c(C(=O)c2c[nH]c3ncc(-c4ccc(Cl)cc4)cc23)c1F + CC(Nc1ccc2c(c1)OCCn1cc(N3C(=O)OCC3C(F)F)nc1-2)C(N)=O" discrete_label="criterion not met"
compound="C[C@@H](NC(=O)c1ncnc(N)c1Cl)c1ncc(C(=O)Nc2cc(C(F)(F)F)c(Cl)cn2)s1 + Cc1nc(NC(=O)N2CCCC2C(N)=O)sc1-c1ccnc(C(C)(C)C(F)(F)F)c1" discrete_label="criterion not met"
compound="CC(Cn1ccc(-c2ccc(C#N)c(Cl)c2)n1)NC(=O)c1cc(C(C)O)[nH]n1 (stereo not given) + CC(Nc1ncnc2nc[nH]c12)c1cc2cccc(Cl)c2c(=O)n1-c1ccccc1" discrete_label="criterion not met"
compound="CC1(C)CCC(CN2CCN(c3ccc(C(=O)NS(=O)(=O)c4ccc(NCC5CCOCC5)c([N+](=O)[O-])c4)c(Oc4cnc5[nH]ccc5c4)c3)CC2)=C(c2ccc(Cl)cc2)C1 + COc1c(OCCCN2CCOCC2)ccc2c3n(c(=NC(=O)c4cnc(N)nc4)nc12)CCN3" discrete_label="criterion met"
compound="Cn1nccc1Nc1nccc(-c2ccn(C(CO)c3ccc(Cl)c(F)c3)c(=O)c2)n1 (stereo not given) + COc1c(OCCCN2CCOCC2)ccc2c3n(c(=NC(=O)c4cnc(N)nc4)nc12)CCN3" discrete_label="criterion met"

Exercise: Take the compound CCCS(=O)(=O)Nc1ccc(F)c(C(=O)c2c[nH]c3ncc(-c4ccc(Cl)cc4)cc23)c1F + CC(Nc1ncnc2nc[nH]c12)c1cc2cccc(Cl)c2c(=O)n1-c1ccccc1 and say whether its viability, T/C is less than 10%.
Solution: criterion not met

Exercise: Take the compound C#Cc1c(F)ccc2cc(O)cc(-c3ncc4c(N5CC6CCC(C5)N6)nc(OCC56CCCN5CC(F)C6)nc4c3F)c12 (stereo not given) + CC(Nc1ccc2c(c1)OCCn1cc(N3C(=O)OCC3C(F)F)nc1-2)C(N)=O and say whether its viability, T/C is less than 10%.
Solution: criterion not met

Exercise: Take the compound CC(C)NCC(C(=O)N1CCN(c2ncnc3c2C(C)CC3O)CC1)c1ccc(Cl)cc1 (stereo not given) + CC(Nc1ncnc2nc[nH]c12)c1cc2cccc(Cl)c2c(=O)n1-c1ccccc1 and say whether its viability, T/C is less than 10%.
Solution: criterion not met

Exercise: Take the compound CNC(=O)c1ccc(N2C(=S)N(c3ccc(C#N)c(C(F)(F)F)c3)C(=O)C2(C)C)cc1F + COc1c(OCCCN2CCOCC2)ccc2c3n(c(=NC(=O)c4cnc(N)nc4)nc12)CCN3 and say whether its viability, T/C is less than 10%.
Solution: criterion met

Exercise: Take the compound C#Cc1c(F)ccc2cc(O)cc(-c3ncc4c(N5CC6CCC(C5)N6)nc(OCC56CCCN5CC(F)C6)nc4c3F)c12 (stereo not given) + Cc1nc(NC(=O)N2CCCC2C(N)=O)sc1-c1ccnc(C(C)(C)C(F)(F)F)c1 and say whether its viability, T/C is less than 10%.
Solution: criterion not met

* * *

system: 953936-095-R-J2-PDC spheroids with HUVEC/MSC, viability; test: Anticancer human tumor 953936-095-R-J2-PDC cell line growth inhibition [PI3K]; settings: second compound 0.0316 µM; first compound 0.1 µM; stronger effect = lower value;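 further: spheroids exposed to compounds for seven days before read-out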
assay-endpoint: viability, T/C (%)
Give the value in % but do not write % after it.

compound="C=CC(=O)N1CCN(c2nc(=O)n(-c3c(C)ccnc3C(C)C)c3nc(-c4c(O)cccc4F)c(F)cc23)C(C)C1 (stereo not drawn) + CC(Nc1ccc2c(c1)OCCn1cc(N3C(=O)OCC3C(F)F)nc1-2)C(N)=O" assay_endpoint="viability, T/C" observed_measurement=82.5
compound="CCN1CCN(Cc2ccc(Nc3ncc(F)c(-c4cc(F)c5nc(C)n(C(C)C)c5c4)n3)nc2)CC1 + Cc1nc(NC(=O)N2CCCC2C(N)=O)sc1-c1ccnc(C(C)(C)C(F)(F)F)c1" assay_endpoint="viability, T/C" observed_measurement=88.6
compound="C#Cc1c(F)ccc2cc(O)cc(-c3ncc4c(N5CC6CCC(C5)N6)nc(OCC56CCCN5CC(F)C6)nc4c3F)c12 (stereo not drawn) + COc1c(OCCCN2CCOCC2)ccc2c3n(c(=NC(=O)c4cnc(N)nc4)nc12)CCN3" assay_endpoint="viability, T/C" observed_measurement=39.5
compound="CC(C)n1nc(-c2ccc3oc(N)nc3c2)c2c(N)ncnc21 + Cc1nc(NC(=O)N2CCCC2C(N)=O)sc1-c1ccnc(C(C)(C)C(F)(F)F)c1" assay_endpoint="viability, T/C" observed_measurement=16.1
compound="Cn1ncnc1[C@H]1c2n[nH]c(=O)c3cc(F)cc(c23)N[C@@H]1c1ccc(F)cc1 + CC(Nc1ncnc2nc[nH]c12)c1cc2cccc(Cl)c2c(=O)n1-c1ccccc1" assay_endpoint="viability, T/C" observed_measurement=96.7

Exercise: Quick one: viability, T/C for CNC(=O)c1ccc(N2C(=S)N(c3ccc(C#N)c(C(F)(F)F)c3)C(=O)C2(C)C)cc1F + CC(Nc1ccc2c(c1)OCCn1cc(N3C(=O)OCC3C(F)F)nc1-2)C(N)=O ?
Solution: 78.6

Exercise: Quick one: viability, T/C for CCN1CCN(Cc2ccc(Nc3ncc(F)c(-c4cc(F)c5nc(C)n(C(C)C)c5c4)n3)nc2)CC1 + CC(Nc1ccc2c(c1)OCCn1cc(N3C(=O)OCC3C(F)F)nc1-2)C(N)=O ?
Solution: 75.8

Exercise: Quick one: viability, T/C for Cn1ncc(Cl)c1-c1cc(C(=O)NC(CN)Cc2cccc(F)c2)sc1Cl (stereo not drawn) + COc1c(OCCCN2CCOCC2)ccc2c3n(c(=NC(=O)c4cnc(N)nc4)nc12)CCN3 ?
Solution: 36.8

Exercise: Quick one: viability, T/C for Cn1ncc(Cl)c1-c1cc(C(=O)NC(CN)Cc2cccc(F)c2)sc1Cl (stereo not drawn) + CC(Nc1ncnc2nc[nH]c12)c1cc2cccc(Cl)c2c(=O)n1-c1ccccc1 ?
Solution: 90.2

Exercise: Quick one: viability, T/C for CCCS(=O)(=O)Nc1ccc(F)c(C(=O)c2c[nH]c3ncc(-c4ccc(Cl)cc4)cc23)c1F + COc1c(OCCCN2CCOCC2)ccc2c3n(c(=NC(=O)c4cnc(N)nc4)nc12)CCN3 ?
Solution: 46

Exercise: Quick one: viability, T/C for Cn1nccc1Nc1nccc(-c2ccn(C(CO)c3ccc(Cl)c(F)c3)c(=O)c2)n1 (stereo not drawn) + CC(Nc1ncnc2nc[nH]c12)c1cc2cccc(Cl)c2c(=O)n1-c1ccccc1 ?
Solution: 100

Exercise: Quick one: viability, T/C for CCCS(=O)(=O)Nc1ccc(F)c(C(=O)c2c[nH]c3ncc(-c4ccc(Cl)cc4)cc23)c1F + CC(Nc1ncnc2nc[nH]c12)c1cc2cccc(Cl)c2c(=O)n1-c1ccccc1 ?
Solution: 98.6

Exercise: Quick one: viability, T/C for CCN1CCN(Cc2ccc(Nc3ncc(F)c(-c4cc(F)c5nc(C)n(C(C)C)c5c4)n3)nc2)CC1 + CC(Nc1ncnc2nc[nH]c12)c1cc2cccc(Cl)c2c(=O)n1-c1ccccc1 ?
Solution: 103
